Answer each item with its documented %Inh.
- Tested on: TEC;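 further: KINOMEscan kinase panel screen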
- Details: concentration: 1 μM, replicates: in singlicate; n = 1
Answer in %, number only, no unit symbol.

Exercise: What measured %Inh goes with "Cc1cc(Nc2nc(-c3cccc(C)n3)nc3ccccc23)ccn1" ?
Solution: 1

Exercise: What measured %Inh goes with "Nc1nc(-c2ccccc2F)c(-c2ccnc3ccccc23)s1" ?
Solution: 0

Exercise: What measured %Inh goes with "Cc1nnc(-c2ccc(C)c(-c3ccc(C(=O)O)cc3)c2)o1" ?
Solution: 0

Exercise: What measured %Inh goes with "Nc1ncnc2c1ncn2-c1cccc(F)c1" ?
Solution: 3

Exercise: What measured %Inh goes with "COc1cccc(-n2cnc3c(N)ncnc32)c1" ?
Solution: 5

Exercise: What measured %Inh goes with "Cl.NS(=O)(=O)c1cccc(Nc2cc(-c3ccc(F)cc3)n[nH]2)c1" ?
Solution: 0

Exercise: What measured %Inh goes with "COc1cc2nccc(Nc3cccc(Oc4ccccc4)c3)c2cc1OC.Cl" ?
Solution: 45

Exercise: What measured %Inh goes with CCS(=O)c1ccc(-c2coc3ccc(-c4nnc(C)o4)cc23)cc1 (centres unmarked) ?
Solution: 0

Exercise: What measured %Inh goes with "O=c1cc(N2CCOCC2)nc2n(Cc3ccc(F)c(Cl)c3)ccn12" ?
Solution: 12

Exercise: What measured %Inh goes with "CCC(=O)c1c(-c2ccccc2)c2cc(Cl)ccc2c(=O)n1Cc1ccc(C(=O)O)cc1" ?
Solution: 10

Exercise: What measured %Inh goes with "O=C(Nc1ccc2c(c1)OCO2)NC1CCN(c2ccnc(NCc3ccc(F)cc3)n2)CC1" ?
Solution: 0

Exercise: What measured %Inh goes with "OCCCNc1nccc(-c2c(-c3cccc(C(F)(F)F)c3)nn3cc(C(F)(F)F)ccc23)n1" ?
Solution: 0

Exercise: What measured %Inh goes with "CN1C(=O)C(Nc2ccccc2)=C(c2ccccc2)C1=O" ?
Solution: 0

Exercise: What measured %Inh goes with "COc1ccc(-n2cnc3c(N)ncnc32)cc1" ?
Solution: 0

Exercise: What measured %Inh goes with Cc1nnc(-c2ccc3ncn(-c4ccc(S(C)=O)cc4)c3c2)o1 (centres unmarked) ?
Solution: 1

Exercise: What measured %Inh goes with "Cc1ccccc1COc1cc(-n2cnc3cc(Cl)ccc32)sc1C(N)=O" ?
Solution: 0

Exercise: What measured %Inh goes with "CCC(=O)c1c(-c2ccccc2)c2cc(Cl)ccc2c(=O)n1Cc1cc(C(=O)NC2CC2)n(C)n1" ?
Solution: 2

Exercise: What measured %Inh goes with "CCC(=O)c1c(-c2ccccc2)c2cc(Cl)ccc2c(=O)n1Cc1cc(S(C)(=O)=O)n(CC(N)=O)n1" ?
Solution: 0

Exercise: What measured %Inh goes with "Nc1nccc2scc(-c3ccc4c(c3)CCN4C(=O)Cc3ccccc3)c12" ?
Solution: 16

Exercise: What measured %Inh goes with "COc1cc2ncn(-c3cc(OCc4ccc(S(C)(=O)=O)cc4)c(C(N)=O)s3)c2cc1OC" ?
Solution: 12

Exercise: What measured %Inh goes with "CC(C)(C)c1ccc(C(=O)Nc2cn3cc(-c4ccccc4)ccc3n2)cc1" ?
Solution: 19

Exercise: What measured %Inh goes with "Cc1cccc(-c2nc(Nc3ccc4c(cnn4C)c3)c3ccccc3n2)n1" ?
Solution: 0

Exercise: What measured %Inh goes with "COc1cc2ncn(-c3cc(OCc4ccncc4Br)c(C(N)=O)s3)c2cc1OC" ?
Solution: 2

Exercise: What measured %Inh goes with "Nc1ncnc2c1ncn2-c1ccc(Cl)cc1" ?
Solution: 9

Exercise: What measured %Inh goes with "Nc1n[nH]c2ncc(-c3ccccc3)cc12" ?
Solution: 6

Exercise: What measured %Inh goes with "Cl.c1ccc(Cn2cnc3cc(Nc4ncnc5ccccc45)ccc32)cc1" ?
Solution: 11

Exercise: What measured %Inh goes with "Nc1nc(N)c2nc(-c3ccccc3)[nH]c2n1" ?
Solution: 7

Exercise: What measured %Inh goes with "COc1ccc(-c2coc3ccc(-c4nnc(SCc5cccc(C#N)c5)o4)cc23)cc1" ?
Solution: 0

Exercise: What measured %Inh goes with "CCCNC(=O)Nc1ccc(Oc2ncnc3ccn(C)c23)cc1" ?
Solution: 1

Exercise: What measured %Inh goes with "Cc1ccc(Oc2ccc(Nc3ncnc4cc[nH]c34)cc2C)cn1" ?
Solution: 6

Exercise: What measured %Inh goes with "COc1cccc(C2=C(Nc3cccc(C(=O)O)c3)C(=O)NC2=O)c1" ?
Solution: 0

Exercise: What measured %Inh goes with COc1cc(Nc2nccc(N3CCC(NC(=O)C4COc5ccccc5O4)C3)n2)cc(OC)c1OC (centres unmarked) ?
Solution: 0

Exercise: What measured %Inh goes with "CN1C(=O)C(Nc2cc(Cl)c(O)c(Cl)c2)=C(c2ccc(Cl)cc2)C1=O" ?
Solution: 0

Exercise: What measured %Inh goes with "CCn1c(-c2nonc2N)nc2ccccc21" ?
Solution: 0

Exercise: What measured %Inh goes with "CCS(=O)(=O)c1ccc(OC)c(Nc2ncc(-c3ccc(F)cc3)o2)c1.Cl" ?
Solution: 0

Exercise: What measured %Inh goes with "Cc1c(Cn2c(C)nn3c(=O)cc(N4CCO[C@H](C)C4)nc23)cccc1C(F)(F)F" ?
Solution: 0

Exercise: What measured %Inh goes with "Nc1n[nH]c2nnc(-c3ccccc3)c(-c3ccccc3)c12" ?
Solution: 0

Exercise: What measured %Inh goes with "O=C1NC(=O)C(c2ccccc2)=C1Nc1cccc(O)c1" ?
Solution: 0
